Hello, the source for this data is ChEMBL document CHEMBL1157095, in case you need it.

test system: Plasmodium falciparum; test: Antiplasmodial activity against chloroquine-susceptible Plasmodium falciparum 8425 infected in human erythrocytes assessed as inhibition of [3H]hypoxanthine uptake after 48 hrs; format: functional, organism-based
ASSAY_READOUT: log10(IC50) (log10 of the value in nM)
Log10 applied to IC50; unit prior to transform: nM.

Examples from the recorded data:
INSERT INTO assay_data (molecule, meas_value) VALUES
  ('C=C[C@H]1CN2CC[C@H]1C[C@H]2[C@H](O)c1ccnc2ccc(OC)cc12', 2.11),
  ('CC(C)NCCNc1ccnc2cc(Cl)ccc12', 1.46);

The value of log10(IC50) measured for the molecule CN(C)CCC(NCCNc1ccnc2cc(Cl)ccc12)c1ccccc1 (stereo not given) turned out to be 0.94

The value of log10(IC50) measured for the molecule Clc1ccc2c(NCCNC(CCN3CCCCC3)c3ccccc3)ccnc2c1 (stereo not given) turned out to be 0.90

The value of log10(IC50) measured for the molecule CCNCc1cc(Nc2ccnc3cc(Cl)ccc23)ccc1O turned out to be 1.42
